- Target Entity: Phosphatidylinositol 4,5-bisphosphate 3-kinase catalytic subunit gamma isoform (Homo sapiens, UniProt P48736)
- Sequence (P48736 whole entry, canonical isoform): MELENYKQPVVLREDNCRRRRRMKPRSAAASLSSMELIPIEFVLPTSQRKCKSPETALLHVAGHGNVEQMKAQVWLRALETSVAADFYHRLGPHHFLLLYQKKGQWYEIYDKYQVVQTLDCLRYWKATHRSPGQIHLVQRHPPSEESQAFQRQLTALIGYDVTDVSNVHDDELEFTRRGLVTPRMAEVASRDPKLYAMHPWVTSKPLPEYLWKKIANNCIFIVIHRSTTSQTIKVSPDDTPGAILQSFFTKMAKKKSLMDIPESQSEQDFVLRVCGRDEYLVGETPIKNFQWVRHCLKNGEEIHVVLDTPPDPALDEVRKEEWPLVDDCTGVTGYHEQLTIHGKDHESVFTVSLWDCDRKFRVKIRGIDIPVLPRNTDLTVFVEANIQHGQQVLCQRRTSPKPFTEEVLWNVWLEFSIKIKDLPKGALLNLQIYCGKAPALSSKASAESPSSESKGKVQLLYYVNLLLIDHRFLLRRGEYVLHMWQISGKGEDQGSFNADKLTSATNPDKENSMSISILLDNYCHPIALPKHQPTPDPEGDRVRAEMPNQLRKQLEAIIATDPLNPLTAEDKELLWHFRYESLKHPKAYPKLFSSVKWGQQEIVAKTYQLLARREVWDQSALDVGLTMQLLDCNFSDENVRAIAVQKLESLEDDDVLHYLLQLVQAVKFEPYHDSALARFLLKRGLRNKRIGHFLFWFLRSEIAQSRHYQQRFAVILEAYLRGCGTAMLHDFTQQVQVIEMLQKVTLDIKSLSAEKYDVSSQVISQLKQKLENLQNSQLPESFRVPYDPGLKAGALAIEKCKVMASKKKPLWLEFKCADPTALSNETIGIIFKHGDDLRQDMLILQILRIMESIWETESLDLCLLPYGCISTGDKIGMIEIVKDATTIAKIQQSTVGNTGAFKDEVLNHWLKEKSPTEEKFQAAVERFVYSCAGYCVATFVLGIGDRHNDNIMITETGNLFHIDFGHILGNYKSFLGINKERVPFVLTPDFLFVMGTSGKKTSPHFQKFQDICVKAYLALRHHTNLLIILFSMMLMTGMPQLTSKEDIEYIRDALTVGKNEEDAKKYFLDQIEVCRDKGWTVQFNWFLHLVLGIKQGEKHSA
- Assay Explanation: Inhibition of PI3Kgamma (unknown origin)
Label scheme for IC50: Low: < 3 nM; Medium: ≥ 3 nM and < 4 nM; High: ≥ 4 nM

Query: Determine which band this molecule sits in: O=S(=O)(Nc1cc(-c2ccc3nncc(-c4ccc(N5CCOCC5)cc4)c3c2)cnc1Cl)c1ccccc1
Response: Low

Query: What about this molecule? O=S(=O)(Nc1cc(-c2ccc3nncc(N4CCOCC4)c3c2)cnc1Cl)c1ccccc1
Response: High

Query: What about this molecule? O=S(=O)(Nc1cc(-c2ccc3nncc(-c4cnc(N5CCOCC5)nc4)c3c2)cnc1Cl)c1ccccc1
Response: High

Query: What about this molecule? O=S(=O)(Nc1cc(-c2ccc3nncc(N4CCCCC4)c3c2)cnc1Cl)c1ccccc1
Response: Medium

Query: What about this molecule? CC1CCN(c2cnnc3ccc(-c4cnc(Cl)c(NS(=O)(=O)c5ccccc5)c4)cc23)CC1
Response: Medium

Query: What about this molecule? O=S(=O)(Nc1cc(-c2ccc3nncc(-c4ccc(N5CCOCC5)nc4)c3c2)cnc1Cl)c1ccccc1
Response: Low

Query: What about this molecule? O=S(=O)(Nc1cc(-c2ccc3nncc(N4CCCC4)c3c2)cnc1Cl)c1ccccc1
Response: High

Query: What about this molecule? CCOc1cnnc2ccc(-c3cnc(Cl)c(NS(=O)(=O)c4ccccc4)c3)cc12
Response: High

Query: What about this molecule? O=S(=O)(Nc1cc(-c2ccc3nncc(-c4ccncc4)c3c2)cnc1Cl)c1ccccc1
Response: Low

* * *

- Test system: A549
- Assay Explanation: Antiproliferative activity against human A549 cells
- Assay type: functional, cell-based
Reported Metric: IC50

Query: Fill in: IC50 of O=S(=O)(Nc1cc(-c2ccc3nncc(-n4ccnc4)c3c2)cnc1Cl)c1ccccc1 is ___
Response: > 50 µM

Query: What about this molecule? O=S(=O)(Nc1cc(-c2ccc3nncc(N4CCNCC4)c3c2)cnc1Cl)c1ccccc1
Response: > 50 µM

Query: What about this molecule? O=S(=O)(Nc1cc(-c2ccc3nncc(N4CCOCC4)c3c2)cnc1Cl)c1ccccc1
Response: > 16.6 µM

Query: What about this molecule? O=S(=O)(Nc1cc(-c2ccc3nncc(-c4cnc(N5CCOCC5)nc4)c3c2)cnc1Cl)c1ccccc1
Response: 10.1 µM

* * *

- Target Entity: Phosphatidylinositol 4,5-bisphosphate 3-kinase catalytic subunit delta isoform (Homo sapiens, UniProt O00329)
- Sequence (O00329 whole entry): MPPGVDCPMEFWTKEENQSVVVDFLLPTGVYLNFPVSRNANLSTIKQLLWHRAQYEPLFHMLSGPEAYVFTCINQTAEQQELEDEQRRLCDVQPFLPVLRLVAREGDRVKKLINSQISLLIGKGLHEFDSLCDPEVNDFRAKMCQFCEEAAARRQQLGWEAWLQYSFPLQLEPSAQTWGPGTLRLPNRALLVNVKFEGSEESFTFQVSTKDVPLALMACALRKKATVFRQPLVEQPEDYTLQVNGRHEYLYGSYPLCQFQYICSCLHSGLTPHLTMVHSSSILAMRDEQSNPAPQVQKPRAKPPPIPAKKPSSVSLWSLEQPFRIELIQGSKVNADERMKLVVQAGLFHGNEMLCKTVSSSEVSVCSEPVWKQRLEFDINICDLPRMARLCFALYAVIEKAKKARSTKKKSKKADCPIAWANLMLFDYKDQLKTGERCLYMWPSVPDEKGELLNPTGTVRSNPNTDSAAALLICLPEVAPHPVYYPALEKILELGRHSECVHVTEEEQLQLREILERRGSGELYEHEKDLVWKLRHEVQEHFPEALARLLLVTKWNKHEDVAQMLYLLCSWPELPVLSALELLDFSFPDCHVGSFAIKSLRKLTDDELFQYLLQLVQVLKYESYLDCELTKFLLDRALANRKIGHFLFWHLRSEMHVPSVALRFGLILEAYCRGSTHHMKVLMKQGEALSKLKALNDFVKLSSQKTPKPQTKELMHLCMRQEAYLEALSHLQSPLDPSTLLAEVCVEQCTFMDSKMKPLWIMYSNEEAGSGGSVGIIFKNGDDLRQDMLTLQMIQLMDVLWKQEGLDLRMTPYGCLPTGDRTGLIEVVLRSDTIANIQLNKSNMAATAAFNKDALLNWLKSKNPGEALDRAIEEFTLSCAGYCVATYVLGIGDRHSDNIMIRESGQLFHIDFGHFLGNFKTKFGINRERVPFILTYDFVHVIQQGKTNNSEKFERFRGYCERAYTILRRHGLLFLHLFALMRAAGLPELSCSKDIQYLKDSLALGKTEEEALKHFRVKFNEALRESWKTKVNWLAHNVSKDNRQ
- Assay Explanation: Inhibition of PI3Kdelta (unknown origin)
# Condition met = IC50 below 1 nM (exclusive); Condition not met = IC50 at/above 1 nM

Query: Check if IC50 falls below 1 nM for O=S(=O)(Nc1cc(-c2ccc3nncc(-c4ccncc4)c3c2)cnc1Cl)c1ccccc1 .
Response: Condition met

Query: What about this compound? O=S(=O)(Nc1cc(-c2ccc3nncc(-c4ccc(N5CCOCC5)nc4)c3c2)cnc1Cl)c1ccccc1
Response: Condition met

Query: What about this compound? COc1ncc(-c2ccc3nncc(Nc4ccccc4)c3c2)cc1NS(=O)(=O)c1ccccc1
Response: Condition not met

Query: What about this compound? C[C@@H](Nc1cnnc2ccc(-c3cnc(Cl)c(NS(=O)(=O)c4ccccc4)c3)cc12)c1ccccc1
Response: Condition not met

* * *

- Target Entity: Phosphatidylinositol 4,5-bisphosphate 3-kinase catalytic subunit beta isoform (Homo sapiens)
- Sequence (P42338 whole entry, canonical isoform): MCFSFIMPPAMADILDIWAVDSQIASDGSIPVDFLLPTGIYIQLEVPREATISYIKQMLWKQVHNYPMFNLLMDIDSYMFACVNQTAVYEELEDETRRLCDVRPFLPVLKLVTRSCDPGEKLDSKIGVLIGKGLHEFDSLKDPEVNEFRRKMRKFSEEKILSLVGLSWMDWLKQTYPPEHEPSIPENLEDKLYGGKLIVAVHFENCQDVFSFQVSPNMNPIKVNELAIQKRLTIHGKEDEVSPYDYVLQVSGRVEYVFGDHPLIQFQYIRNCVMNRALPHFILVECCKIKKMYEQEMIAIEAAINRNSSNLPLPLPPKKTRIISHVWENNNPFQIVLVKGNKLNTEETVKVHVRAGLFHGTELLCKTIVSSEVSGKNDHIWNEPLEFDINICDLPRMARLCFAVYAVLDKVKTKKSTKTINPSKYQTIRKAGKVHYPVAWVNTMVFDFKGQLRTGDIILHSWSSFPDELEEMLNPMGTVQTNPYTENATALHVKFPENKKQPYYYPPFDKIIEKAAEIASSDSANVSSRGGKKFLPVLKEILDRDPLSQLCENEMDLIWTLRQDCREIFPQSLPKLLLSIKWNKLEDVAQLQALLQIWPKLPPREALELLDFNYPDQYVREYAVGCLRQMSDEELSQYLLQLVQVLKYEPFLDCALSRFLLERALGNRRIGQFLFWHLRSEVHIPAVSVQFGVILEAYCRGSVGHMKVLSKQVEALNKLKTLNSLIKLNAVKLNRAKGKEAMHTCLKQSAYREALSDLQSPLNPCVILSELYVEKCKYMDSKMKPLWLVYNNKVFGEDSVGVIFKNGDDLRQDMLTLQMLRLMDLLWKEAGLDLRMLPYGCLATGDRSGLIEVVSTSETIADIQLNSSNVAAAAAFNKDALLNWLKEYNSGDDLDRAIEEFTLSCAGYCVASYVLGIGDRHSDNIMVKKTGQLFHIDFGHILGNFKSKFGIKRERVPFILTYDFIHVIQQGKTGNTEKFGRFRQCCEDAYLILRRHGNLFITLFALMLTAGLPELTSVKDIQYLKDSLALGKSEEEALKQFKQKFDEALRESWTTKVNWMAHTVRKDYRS
- Assay Explanation: Inhibition of PI3Kbeta (unknown origin)
Reported Metric: pIC50
Field pIC50 (float): negative decimal logarithm of the concentration in molar.

Query: Fill in: pIC50 of O=S(=O)(Nc1cc(-c2ccc3nncc(-c4ccc(N5CCOCC5)nc4)c3c2)cnc1Cl)c1ccccc1 is ___
Response: 8.81

Query: What about this molecule? O=S(=O)(Nc1cc(-c2ccc3nncc(N4CCCC4)c3c2)cnc1Cl)c1ccccc1
Response: 8.27

Query: What about this molecule? CC1CCN(c2cnnc3ccc(-c4cnc(Cl)c(NS(=O)(=O)c5ccccc5)c4)cc23)CC1
Response: 8.27

Query: What about this molecule? O=S(=O)(Nc1cc(-c2ccc3nncc(-c4cnc(N5CCOCC5)nc4)c3c2)cnc1Cl)c1ccccc1
Response: 8.33

Query: What about this molecule? O=S(=O)(Nc1cc(-c2ccc3nncc(-n4ccnc4)c3c2)cnc1Cl)c1ccccc1
Response: 8.62

Query: What about this molecule? O=S(=O)(Nc1cc(-c2ccc3nncc(N4CCCCC4)c3c2)cnc1Cl)c1ccccc1
Response: 8.34

Query: What about this molecule? O=S(=O)(Nc1cc(-c2ccc3nncc(-c4ccc(N5CCOCC5)cc4)c3c2)cnc1Cl)c1ccccc1
Response: 8.52

Query: What about this molecule? O=S(=O)(Nc1cc(-c2ccc3nncc(-c4ccncc4)c3c2)cnc1Cl)c1ccccc1
Response: 8.77

Query: What about this molecule? O=S(=O)(Nc1cc(-c2ccc3nncc(N4CCOCC4)c3c2)cnc1Cl)c1ccccc1
Response: 7.84

Query: What about this molecule? CCOc1cnnc2ccc(-c3cnc(Cl)c(NS(=O)(=O)c4ccccc4)c3)cc12
Response: 8.25

* * *

- Target Entity: Phosphatidylinositol 4,5-bisphosphate 3-kinase catalytic subunit alpha isoform (Homo sapiens, UniProt P42336)
- Sequence (P42336 whole entry, canonical isoform): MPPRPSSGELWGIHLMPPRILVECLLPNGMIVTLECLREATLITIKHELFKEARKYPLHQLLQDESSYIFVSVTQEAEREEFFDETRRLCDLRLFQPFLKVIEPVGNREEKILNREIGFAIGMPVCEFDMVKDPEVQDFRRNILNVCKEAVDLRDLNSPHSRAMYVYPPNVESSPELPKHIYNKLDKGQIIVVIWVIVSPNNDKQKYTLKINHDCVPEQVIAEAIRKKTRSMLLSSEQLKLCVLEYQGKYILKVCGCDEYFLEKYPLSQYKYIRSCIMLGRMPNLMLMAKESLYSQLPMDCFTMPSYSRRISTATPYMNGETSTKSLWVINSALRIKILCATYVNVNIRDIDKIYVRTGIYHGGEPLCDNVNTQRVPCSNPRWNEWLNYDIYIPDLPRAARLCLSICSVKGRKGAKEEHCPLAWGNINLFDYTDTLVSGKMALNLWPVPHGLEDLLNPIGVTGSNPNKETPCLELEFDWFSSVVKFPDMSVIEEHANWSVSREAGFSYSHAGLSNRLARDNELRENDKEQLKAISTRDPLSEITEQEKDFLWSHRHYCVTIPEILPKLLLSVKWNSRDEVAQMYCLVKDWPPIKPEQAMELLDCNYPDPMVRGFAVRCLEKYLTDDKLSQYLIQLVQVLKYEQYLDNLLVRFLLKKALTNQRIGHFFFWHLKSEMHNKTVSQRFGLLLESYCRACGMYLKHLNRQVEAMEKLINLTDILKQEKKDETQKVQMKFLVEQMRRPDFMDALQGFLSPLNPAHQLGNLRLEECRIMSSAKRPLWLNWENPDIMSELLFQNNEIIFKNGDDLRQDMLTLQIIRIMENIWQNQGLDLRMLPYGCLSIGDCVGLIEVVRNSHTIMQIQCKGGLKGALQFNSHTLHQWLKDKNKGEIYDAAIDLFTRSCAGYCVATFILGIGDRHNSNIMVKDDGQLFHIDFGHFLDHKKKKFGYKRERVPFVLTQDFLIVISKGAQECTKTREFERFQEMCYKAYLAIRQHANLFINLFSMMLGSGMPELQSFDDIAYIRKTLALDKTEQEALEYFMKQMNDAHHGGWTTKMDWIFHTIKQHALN
- Assay Explanation: Inhibition of PI3Kalpha (unknown origin)
Reported Metric: pIC50
Field pIC50 (float): negative decimal logarithm of the concentration in molar.

Query: Fill in: pIC50 of O=S(=O)(Nc1cc(-c2ccc3nncc(-c4cnc(N5CCOCC5)nc4)c3c2)cnc1Cl)c1ccccc1 is ___
Response: 9.03

Query: What about this molecule? O=S(=O)(Nc1cc(-c2ccc3nncc(N4CCOCC4)c3c2)cnc1Cl)c1ccccc1
Response: 8.81

Query: What about this molecule? O=S(=O)(Nc1cc(-c2ccc3nncc(-n4ccnc4)c3c2)cnc1Cl)c1ccccc1
Response: 8.86

Query: What about this molecule? O=S(=O)(Nc1cc(-c2ccc3nncc(-c4ccc(N5CCOCC5)nc4)c3c2)cnc1Cl)c1ccccc1
Response: 9.15

Query: What about this molecule? O=S(=O)(Nc1cc(-c2ccc3nncc(-c4ccc(N5CCOCC5)cc4)c3c2)cnc1Cl)c1ccccc1
Response: 9.15

Query: What about this molecule? CC1CCN(c2cnnc3ccc(-c4cnc(Cl)c(NS(=O)(=O)c5ccccc5)c4)cc23)CC1
Response: 8.79

Query: What about this molecule? O=S(=O)(Nc1cc(-c2ccc3nncc(-c4ccncc4)c3c2)cnc1Cl)c1ccccc1
Response: 9.15

Query: What about this molecule? O=S(=O)(Nc1cc(-c2ccc3nncc(N4CCCC4)c3c2)cnc1Cl)c1ccccc1
Response: 8.58

Query: What about this molecule? O=S(=O)(Nc1cc(-c2ccc3nncc(N4CCCCC4)c3c2)cnc1Cl)c1ccccc1
Response: 8.88

Query: What about this molecule? CCOc1cnnc2ccc(-c3cnc(Cl)c(NS(=O)(=O)c4ccccc4)c3)cc12
Response: 8.75

* * *

Kindly state pIC50 for each of the entries shown.
- Target Entity: Phosphatidylinositol 4,5-bisphosphate 3-kinase catalytic subunit delta isoform (Homo sapiens)
- Assay Explanation: Inhibition of PI3Kdelta (unknown origin)
Field pIC50 (float): negative decimal logarithm of the concentration in molar.

Query: Fill in: pIC50 of O=S(=O)(Nc1cc(-c2ccc3nncc(N4CCOCC4)c3c2)cnc1Cl)c1ccccc1 is ___
Response: 9.07

Query: What about this compound? COc1ncc(-c2ccc3nncc(Cl)c3c2)cc1NS(=O)(=O)c1ccccc1
Response: 8.35

Query: What about this compound? CC(=O)Nc1ccc(Nc2cnnc3ccc(-c4cnc(Cl)c(NS(=O)(=O)c5ccccc5)c4)cc23)cc1
Response: 8.48

Query: What about this compound? O=S(=O)(Nc1cc(-c2ccc3nncc(N4CCNCC4)c3c2)cnc1Cl)c1ccccc1
Response: 8.80

Query: What about this compound? O=S(=O)(Nc1cc(-c2ccc3nncc(-c4cnc(N5CCOCC5)nc4)c3c2)cnc1Cl)c1ccccc1
Response: 9.19

Query: What about this compound? O=S(=O)(Nc1cc(-c2ccc3nncc(Cl)c3c2)cnc1Cl)c1ccccc1
Response: 9.26

Query: What about this compound? COc1ncc(-c2ccc3nncc(N4CCOCC4)c3c2)cc1NS(=O)(=O)c1ccccc1
Response: 8.39

Query: What about this compound? CCCCCCOc1cnnc2ccc(-c3cnc(Cl)c(NS(=O)(=O)c4ccccc4)c3)cc12
Response: 6.67

Query: What about this compound? C[C@H](Nc1cnnc2ccc(-c3cnc(Cl)c(NS(=O)(=O)c4ccccc4)c3)cc12)c1ccccc1
Response: 7.57

Query: What about this compound? O=S(=O)(Nc1cc(-c2ccc3nncc(N4CCCC4)c3c2)cnc1Cl)c1ccccc1
Response: 9.06

Query: What about this compound? O=S(=O)(Nc1cc(-c2ccc3nncc(-c4ccccc4)c3c2)cnc1Cl)c1ccccc1
Response: 8.54

Query: What about this compound? O=S(=O)(Nc1cc(-c2ccc3nncc(-c4ccc(N5CCOCC5)cc4)c3c2)cnc1Cl)c1ccccc1
Response: 9.40
